Reference for the values: patent US12502388B2

# assayed system: LANCL2 (Homo sapiens)
# Sequence (Q9NS86 whole entry): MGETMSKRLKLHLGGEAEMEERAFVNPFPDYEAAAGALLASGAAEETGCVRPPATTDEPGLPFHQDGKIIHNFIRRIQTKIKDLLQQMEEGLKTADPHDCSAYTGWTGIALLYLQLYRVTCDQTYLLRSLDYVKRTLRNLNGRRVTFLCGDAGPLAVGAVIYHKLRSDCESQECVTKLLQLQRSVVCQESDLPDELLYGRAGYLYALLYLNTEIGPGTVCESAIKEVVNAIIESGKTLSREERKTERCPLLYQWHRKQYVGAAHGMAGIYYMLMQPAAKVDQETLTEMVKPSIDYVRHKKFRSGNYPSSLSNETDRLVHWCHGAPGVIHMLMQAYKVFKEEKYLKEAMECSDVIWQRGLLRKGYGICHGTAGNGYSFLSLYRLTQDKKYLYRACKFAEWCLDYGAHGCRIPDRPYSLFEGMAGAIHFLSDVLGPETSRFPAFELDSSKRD
measured property: pKd
Give bare numbers, as −log10 of the molar value.

Report pKd for "O=C(c1cccc(-c2nc3ccccc3[nH]2)n1)N1CCN(C(=O)c2cccc(-c3nc4ccccc4[nH]3)n2)CC1" please.
5.20
